# Assay info: chemical genetic growth profiling, strain panel (AID 1159580);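 also: tested at 20 µM; growth read once vehicle control cultures reached saturation at 30 °C; 1 = growth at the plate median or of vehicle wells; lower values mean less growth of the strain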
# Assay conditions: S. cerevisiae deletion strains, growth OD, locus YOR329C, strain SCD5, hits give low values
Among all 5,500 compounds or so, about 2,000 (36%) were called active. Another 18% or so got no clear call; they are omitted. Some of the results follow.
Reported normalized growth values follow for various compounds
Value kind: normalized growth

[[record]]
compound = "CC(C)(C)c1ccc(C(=O)NNc2c(Cl)cccc2Cl)cc1"
reported_measurement = 0.981

[[record]]
compound = "S=c1[nH]nc(Nc2ccc(I)cc2)s1"
reported_measurement = 0.847

[[record]]
compound = "O=[N+]([O-])c1ccc2oc(C(O)c3cccc(Cl)c3)cc2c1 (stereo unspecified)"
reported_measurement = 0.948

[[record]]
compound = "O=C(/C=C/Sc1nc2ccccc2s1)c1ccc(Cl)cc1"
reported_measurement = 0.972

[[record]]
compound = "Cc1onc(-c2c(Cl)cccc2Cl)c1C(=O)NNc1c(Cl)cccc1Cl"
reported_measurement = 0.981

[[record]]
compound = "Cc1ccc(NNC(=O)c2c(C)noc2C)cc1Cl"
reported_measurement = 0.986

[[record]]
compound = "CC(C)(CCC(C)(C)N1C(=O)c2cccc3cccc(c23)C1=O)N1C(=O)c2cccc3cccc(c23)C1=O"
reported_measurement = 0.0829

[[record]]
compound = "OC(=Cc1nc2ccccc2nc1C=C(O)c1ccc(Cl)cc1)c1ccc(Cl)cc1"
reported_measurement = 0.983

[[record]]
compound = "CCCCCCCCCCCC(=O)NOC(=O)c1c(-c2c(Cl)cccc2Cl)noc1C"
reported_measurement = 0.991

[[record]]
compound = "O=[N+]([O-])c1ccc(Sc2ssc(=S)c2-c2ccccc2)nc1"
reported_measurement = 0.945

[[record]]
compound = "O=C(Nc1ccc(OC(F)(F)F)cc1)N1CCN(c2nc(-c3ccccc3)ns2)CC1"
reported_measurement = 0.984


meta.source: PubChem BioAssay AID1159580
